The reported measurements were obtained from ChEMBL document CHEMBL1134996.

assay: Bioavailability in dog; assay type: ADME, organism-based, Canis lupus familiaris; conditions: in vivo
property_label: bioavailability (%)

{"compound": "O=C(CCCCc1nc2c(cc1C1CC1)CCCN2)NCC(C(=O)O)c1ccc2c(c1)OCC2 (centres undefined)", "result_unit": "%", "bioavailability": 40}

P = CN(CC(C(=O)O)c1ccc2c(c1)OCC2)C(=O)CCC1CCc2cc3c(nc2C1)NCCC3 (centres undefined)
Q = O=C(CCCCc1ccc2c(n1)NCCC2)NCC(C(=O)O)c1ccc2c(c1)OCC2 (centres undefined)
R = O=C(CCC1CCc2cc3c(nc2C1)NCCC3)NCC(C(=O)O)c1ccc2c(c1)OCC2 (centres undefined)
Provide the items ranked by increasing bioavailability. Reply: labels, ordered per the request.
R, P, Q
(R: 1.1%, P: 18%, Q: 47%)
